All values here come from ChEMBL document CHEMBL2203205.

procedure.details: Half life in Sprague-Dawley rat at 10 mg/kg, po
Format: ADME, organism-based
Set-up: dose 10 mg/kg, route oral
condition.summary: in vivo
property.label: half-life (h)
A number alone suffices; assume h.

### Prompt Would you kindly share the measured half-life for N=C(Nc1ccc2c(c1)CCN2C1CCNCC1)c1cccs1 ?
### Response 12

====

system: Alpha-2C adrenergic receptor (Homo sapiens, UniProt P18825)
Sequence (P18825 whole entry): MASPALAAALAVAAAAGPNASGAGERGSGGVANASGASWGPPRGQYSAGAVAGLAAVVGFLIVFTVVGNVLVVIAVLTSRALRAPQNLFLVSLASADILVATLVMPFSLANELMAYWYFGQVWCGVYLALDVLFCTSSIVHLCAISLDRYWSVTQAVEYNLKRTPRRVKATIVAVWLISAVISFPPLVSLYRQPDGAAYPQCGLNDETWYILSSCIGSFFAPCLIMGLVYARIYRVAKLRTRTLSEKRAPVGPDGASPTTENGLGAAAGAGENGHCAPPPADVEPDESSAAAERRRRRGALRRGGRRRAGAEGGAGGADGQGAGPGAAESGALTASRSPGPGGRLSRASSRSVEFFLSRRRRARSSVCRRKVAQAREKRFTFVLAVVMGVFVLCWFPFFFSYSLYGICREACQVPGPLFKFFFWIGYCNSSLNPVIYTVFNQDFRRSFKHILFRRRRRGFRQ
procedure.details: Inhibition of alpha2C adrenergic receptor
property.label: IC50
// unit must come after the numeric part

### Prompt I am curious: what IC50 value has been reported for N=C(Nc1ccc2c(c1)CCN2C1CCNCC1)c1cccs1 ?
### Response 11 µM

====

system: Nitric oxide synthase, inducible (Homo sapiens, UniProt P35228)
Sequence (P35228 whole entry, looked up): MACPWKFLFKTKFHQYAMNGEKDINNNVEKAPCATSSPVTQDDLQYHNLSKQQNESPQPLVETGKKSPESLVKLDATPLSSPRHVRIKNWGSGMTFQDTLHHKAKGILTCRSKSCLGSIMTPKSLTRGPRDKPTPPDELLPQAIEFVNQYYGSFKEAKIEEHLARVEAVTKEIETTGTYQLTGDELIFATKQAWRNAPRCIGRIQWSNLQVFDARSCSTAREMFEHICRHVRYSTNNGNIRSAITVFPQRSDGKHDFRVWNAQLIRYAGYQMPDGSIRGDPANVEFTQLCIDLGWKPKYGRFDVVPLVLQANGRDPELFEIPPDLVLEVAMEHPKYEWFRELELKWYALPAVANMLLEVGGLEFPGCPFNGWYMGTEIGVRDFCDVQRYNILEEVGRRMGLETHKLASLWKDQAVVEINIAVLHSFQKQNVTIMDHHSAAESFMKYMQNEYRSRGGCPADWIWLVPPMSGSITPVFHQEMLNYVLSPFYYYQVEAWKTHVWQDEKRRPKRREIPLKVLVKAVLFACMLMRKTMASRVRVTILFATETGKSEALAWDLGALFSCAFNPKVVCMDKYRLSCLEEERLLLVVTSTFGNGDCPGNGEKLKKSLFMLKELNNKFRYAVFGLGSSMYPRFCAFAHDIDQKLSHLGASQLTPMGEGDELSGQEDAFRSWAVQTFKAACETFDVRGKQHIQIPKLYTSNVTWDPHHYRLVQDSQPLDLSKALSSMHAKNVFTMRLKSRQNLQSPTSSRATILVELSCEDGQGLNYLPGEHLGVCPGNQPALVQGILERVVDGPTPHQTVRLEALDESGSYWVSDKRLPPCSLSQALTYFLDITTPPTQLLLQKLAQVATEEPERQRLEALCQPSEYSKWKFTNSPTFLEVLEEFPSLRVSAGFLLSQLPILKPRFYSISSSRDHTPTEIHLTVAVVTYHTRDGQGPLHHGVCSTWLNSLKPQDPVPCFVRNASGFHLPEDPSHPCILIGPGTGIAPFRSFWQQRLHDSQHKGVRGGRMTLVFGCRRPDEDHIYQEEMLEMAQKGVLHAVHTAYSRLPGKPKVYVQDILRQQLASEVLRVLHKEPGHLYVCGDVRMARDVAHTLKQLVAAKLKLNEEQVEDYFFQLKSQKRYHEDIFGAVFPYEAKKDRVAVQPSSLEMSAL
procedure.details: Inhibition of recombinant human iNOS expressed in baculovirus-infected Sf9 cells assessed as conversion of [3H]-larginine to [3H]-L-citrulline preincubated for 15 mins measured after 45 mins by liquid scintillation counting
IC50 values for the compounds below.
Write the answer as a number in µM, unit excluded.

Example entries and their recorded answers appear below.
CN1CCC(N2CCc3cc(NC(=N)c4cccs4)ccc32)CC1; 4.67
N=C(Nc1ccc2c(c1)CCN2C1CCNCC1)c1cccs1; 415

For the next question, use this compound.
### Prompt State the recorded IC50 for this entry: N=C(Nc1ccc2c(c1)CCN2C(=O)CN1CCCC1)c1cccs1
### Response 0.77

====

IC50 for assorted molecules
system: Nitric oxide synthase, inducible (Homo sapiens, UniProt P35228)
procedure.details: Inhibition of recombinant human iNOS expressed in baculovirus-infected Sf9 cells assessed as conversion of [3H]-larginine to [3H]-L-citrulline preincubated for 15 mins measured after 45 mins by liquid scintillation counting
The answer is to be given in µM; state only the numeric part.

Below, 5 molecules whose answers are already recorded.
CC1CC(N2CCc3cc(NC(=N)c4cccs4)ccc32)CCN1 (stereo in doubt); 1.09
N=C(Nc1ccc2c(c1)CCN2C1CCN(CCO)CC1)c1cccs1; 1.58
N=C(Nc1ccc2c(c1)CCN2C1CCCNC1)c1cccs1 (racemic); 52.2
CNC1CCC(N2CCc3cc(NC(=N)c4cccs4)ccc32)CC1 (cis isomer); 4.08
CC1CC(N2CCc3cc(NC(=N)c4cccs4)ccc32)CCN1 (single isomer, unassigned; (+)); 1.8

### Prompt Request the reported IC50 associated with CN(C)CCN1CCc2cc(NC(=N)c3cccs3)ccc21
### Response 4.07

### Prompt Name the reported IC50 value associated with the molecule N=C(Nc1ccc2c(c1)CCN2CCN1CCCC1)c1cccs1
### Response 0.41

### Prompt Endpoint output: IC50 of CC1CC(N2CCc3cc(NC(=N)c4cccs4)ccc32)CCN1 (trans isomer) . Value?
### Response 4.75

====

system: Nitric oxide synthase 3 (Homo sapiens, UniProt P29474)
Sequence (P29474 whole entry, looked up): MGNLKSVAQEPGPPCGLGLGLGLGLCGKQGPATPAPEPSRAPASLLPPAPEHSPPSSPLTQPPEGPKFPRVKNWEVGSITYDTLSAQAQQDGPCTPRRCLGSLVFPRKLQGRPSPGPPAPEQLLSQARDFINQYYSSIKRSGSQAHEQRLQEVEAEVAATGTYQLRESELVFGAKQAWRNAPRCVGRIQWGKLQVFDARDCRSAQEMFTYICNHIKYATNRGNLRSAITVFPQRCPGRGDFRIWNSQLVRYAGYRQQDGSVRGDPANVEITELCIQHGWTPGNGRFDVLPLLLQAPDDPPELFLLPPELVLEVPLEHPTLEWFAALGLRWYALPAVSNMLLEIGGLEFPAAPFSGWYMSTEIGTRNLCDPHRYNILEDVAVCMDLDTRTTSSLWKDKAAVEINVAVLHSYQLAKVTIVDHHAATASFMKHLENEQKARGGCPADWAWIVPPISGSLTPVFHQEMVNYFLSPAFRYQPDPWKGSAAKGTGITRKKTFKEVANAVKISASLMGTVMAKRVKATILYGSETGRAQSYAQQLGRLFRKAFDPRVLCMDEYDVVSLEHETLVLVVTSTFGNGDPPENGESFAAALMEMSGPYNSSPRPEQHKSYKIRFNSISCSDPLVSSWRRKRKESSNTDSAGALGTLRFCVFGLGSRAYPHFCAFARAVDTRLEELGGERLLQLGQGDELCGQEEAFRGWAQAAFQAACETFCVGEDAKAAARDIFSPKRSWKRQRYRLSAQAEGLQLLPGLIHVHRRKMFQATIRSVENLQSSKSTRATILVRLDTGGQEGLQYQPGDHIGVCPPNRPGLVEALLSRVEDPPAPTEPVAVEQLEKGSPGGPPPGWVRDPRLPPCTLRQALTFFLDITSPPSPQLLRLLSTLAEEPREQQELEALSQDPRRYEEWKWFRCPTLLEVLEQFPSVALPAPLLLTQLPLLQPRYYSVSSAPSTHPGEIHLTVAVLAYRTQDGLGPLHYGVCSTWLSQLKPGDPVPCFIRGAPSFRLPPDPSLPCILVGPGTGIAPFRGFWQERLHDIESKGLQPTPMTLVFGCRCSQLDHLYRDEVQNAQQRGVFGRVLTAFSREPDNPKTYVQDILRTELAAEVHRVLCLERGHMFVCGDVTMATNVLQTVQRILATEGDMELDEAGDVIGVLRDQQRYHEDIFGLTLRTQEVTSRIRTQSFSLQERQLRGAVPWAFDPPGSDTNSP
procedure.details: Inhibition of recombinant human eNOS expressed in baculovirus-infected Sf9 cells assessed as conversion of [3H]-larginine to [3H]-L-citrulline preincubated for 15 mins measured after 45 mins by liquid scintillation counting
Measured pIC50 values are reported for all entries that follow.
Scale note: pIC50 = -log10(concentration in M).

CN1CCC(N2CCc3cc(NC(=N)c4cccs4)ccc32)CC1; 4.24
N=C(Nc1ccc2c(c1)CCN2CCNCCO)c1cccs1; 5.00
CC1CC(N2CCc3cc(NC(=N)c4cccs4)ccc32)CCN1 (trans isomer); 4.44

# ---- query compound ----
### Prompt Need pIC50 of N=C(Nc1ccc2c(c1)CCN2C1CCCNC1)c1cccs1 (racemic) , thanks.
### Response 4.03
